Tested on: MKN-45 cells
procedure.details: Inhibition of MKN-45 proliferation (MTT)
Assay type: cell-based, human
experimental.conditions: Homo sapiens, MKN-45, MKN-45 proliferation, 1 μM
Counter-ions that a name gives are not always drawn.
quantity.measured: inhibition at 1 µM

* CC(C)(C)NC(=O)c1ccc(-c2ccc3nnn(Cc4ccc5ncccc5c4)c3n2)cc1F | < 25%
* NCCCNC(=O)c1ccc(-c2ccc3nnn(Cc4ccc5ncccc5c4)c3n2)cc1F [Ex 125, dihydrochloride] | < 25%
* CC(C)NS(=O)(=O)c1ccc(-c2ccc3nnn(Cc4ccc5ncccc5c4)c3n2)cc1 | 50 to 75%
* CC(C)NC(=O)c1ccc(-c2ccc3nnn(Cc4ccc5ncccc5c4)c3n2)cc1F | 50 to 75%
* O=C(NCc1ccccc1)c1ccc(-c2ccc3nnn(Cc4ccc5ncccc5c4)c3n2)cc1F | 75 to 100%
* CCc1nn(C(=O)OC(C)(C)C)c2cc(-c3ccc4nnn(Cc5ccc6ncccc6c5)c4n3)ccc12 | 75 to 100%
* CN(C)c1cccc(-c2ccc3nnn(Cc4ccc5ncccc5c4)c3n2)c1 | < 25%
* Cl.O=C(Nc1nc[nH]n1)c1ccc(-c2ccc3nnn(Cc4ccc5ncccc5c4)c3n2)cc1F [Ex 127, hydrochloride] | 75 to 100%
